Ki for assorted compounds
assay: Binding affinity to recombinant Cryptococcus neoformans var. grubii H99 major aspartyl peptidase 1 assessed as inhibition constant
Just the number in nM, nothing appended.

# count of solved cases: 2
NC(=O)[C@@H](NC(=O)[C@H](CCC(=O)O)NC(=O)C[C@H](O)[C@H](Cc1ccccc1)NC(=O)OCc1ccccc1)c1ccccc1 :: 210
CCOP(=O)(COc1ccc(C[C@H](NC(=O)O[C@H]2CO[C@H]3OCC[C@H]32)[C@H](O)CN(CC(C)C)S(=O)(=O)c2ccc(OC)cc2)cc1)OCC :: 170

Task item: Given the entry Cc1nc(COc2ccc(C[C@H](NC(=O)O[C@H]3CO[C@H]4OCC[C@H]43)[C@H](O)CN(CC(C)C)S(=O)(=O)c3ccc4c(c3)OCO4)cc2)cs1 , report its measured Ki.
Reply: 350
